- system: Cholinesterase (Equus caballus)
- assayContext: at 2 mg/mL
- Description: Inhibition of horse BChE at 2 mg/ml by Ellman's method
Parameter inhibition: see the listing below.
Provide only the numeric value, understood in %.

// worked examples, inhibition included
>>> reportedvalue("CCCCCCCCCCC1=C(C)C(=O)C(OC)=C(OC)C1=O")
0.01
>>> reportedvalue("COc1cc([C@@H]2c3cc4c(cc3[C@H](O)[C@H]3COC(=O)[C@H]23)OCO4)cc(OC)c1OC")
-9.54
>>> reportedvalue("CO[C@H](C)[C@](O)(C(=O)OCC1=CCN2CC[C@H](O)[C@@H]12)C(C)C")
1.48

Here's the next entry for you.
Entry C=C[C@H]1CN2CC[C@H]1C[C@H]2[C@H](O)c1ccnc2ccc(OC)cc12 — recorded inhibition = 24.7

###

- system: Acetylcholinesterase (Electrophorus electricus) (UniProt O42275)
- Sequence (O42275 24-633 limits assumed): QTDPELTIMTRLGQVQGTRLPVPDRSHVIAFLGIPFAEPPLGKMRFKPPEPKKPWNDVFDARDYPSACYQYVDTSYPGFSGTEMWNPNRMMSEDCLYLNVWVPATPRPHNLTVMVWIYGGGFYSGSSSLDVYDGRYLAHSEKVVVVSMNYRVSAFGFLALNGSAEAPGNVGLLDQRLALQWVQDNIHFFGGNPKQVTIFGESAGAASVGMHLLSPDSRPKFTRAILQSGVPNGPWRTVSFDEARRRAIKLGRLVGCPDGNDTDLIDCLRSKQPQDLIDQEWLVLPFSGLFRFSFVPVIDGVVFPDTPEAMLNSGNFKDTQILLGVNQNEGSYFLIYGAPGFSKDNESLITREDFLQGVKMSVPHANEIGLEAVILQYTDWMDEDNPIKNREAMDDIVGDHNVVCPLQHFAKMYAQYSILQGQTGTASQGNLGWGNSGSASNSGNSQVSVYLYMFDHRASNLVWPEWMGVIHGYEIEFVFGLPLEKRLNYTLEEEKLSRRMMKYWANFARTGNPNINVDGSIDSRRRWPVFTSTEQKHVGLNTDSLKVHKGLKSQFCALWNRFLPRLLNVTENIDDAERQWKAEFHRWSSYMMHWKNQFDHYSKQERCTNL
- assayContext: at 2 mg/mL
- Description: Inhibition of electric eel AChE at 2 mg/ml by Ellman's method
Parameter inhibition: see the listing below.
Provide only the numeric value, understood in %.

// worked examples, inhibition included
>>> reportedvalue("CC1(C)CCC2=C(O1)c1ccccc1C(=O)C2=O")
-2.91
>>> reportedvalue("COc1cc2ccc(=O)oc2cc1O")
4.78

Entry CC[C@@H](C(=O)[C@@H](C)[C@@H](O)[C@H](C)CCc1ccc(C)c(O)c1C(=O)O)[C@H]1O[C@](CC)([C@H]2CC[C@](O)(CC)[C@H](C)O2)C[C@@H]1C — recorded inhibition = -1.88

Entry O=c1c(O)c(-c2ccccc2)oc2cc(O)cc(O)c12 — recorded inhibition = 6.98

Entry COc1cc2c(c(OC)c1OC)-c1c(cc3c(c1O)OCO3)C[C@H](C)[C@](C)(O)[C@H]2OC(=O)c1ccccc1 — recorded inhibition = 5.31

Entry CN1[C@H]2C[C@H](OC(=O)[C@H](CO)c3ccccc3)C[C@@H]1[C@@H](O)C2 — recorded inhibition = 9.43

###

- system: Acetylcholinesterase (Electrophorus electricus) (UniProt O42275)
- assayContext: at 2 mg/mL
The label depends only on inhibition: Criterion met if it is at least 10%, Criterion not met if it is smaller.

Determine whether measured inhibition meets or exceeds 10% for C[C@@H]1O[C@@H](O[C@@H]2[C@@H](O)[C@H](O)[C@@H](CO)O[C@H]2c2c(O)cc(O)c3c(=O)cc(-c4ccc(O)cc4)oc23)[C@H](O)[C@H](O)[C@H]1O Criterion met

Determine whether measured inhibition meets or exceeds 10% for O=c1cc(-c2ccc(O)c(O)c2)oc2cc(O)cc(O)c12 Criterion met

###

Parameter inhibition: see the listing below.
- system: Acetylcholinesterase (Electrophorus electricus)
- assayContext: at 2 mg/mL
Returns: string containing the numeric result and its unit.

>>> reportedvalue("COC(=O)[C@H]1[C@H]2C[C@H]3c4[nH]c5cc(OC)ccc5c4CCN3C[C@H]2C[C@@H](OC(=O)c2cc(OC)c(OC)c(OC)c2)[C@@H]1OC")
"-2.45%"

Entry COc1ccc(Cc2nccc3cc(OC)c(OC)cc23)cc1OC — recorded inhibition = 35%

Entry COc1ccc2c(c1O)-c1c(OC)c(OC)cc3c1[C@H](C2)N(C)CC3 — recorded inhibition = -6.07%

Entry CCCC(=O)O[C@@H]1[C@@H](C)[C@@]2(O)[C@@H](C=C(CO)C[C@]3(O)C(=O)C(C)=C[C@@H]23)[C@@H]2C(C)(C)[C@]12OC(=O)CCC (stereo in doubt; form 1) — recorded inhibition = 22.5%

Entry C[C@@H]1O[C@@H](Oc2c(-c3ccc(O)c(O)c3)oc3cc(O)cc(O)c3c2=O)[C@H](O)[C@H](O)[C@H]1O — recorded inhibition = 0.25%

Entry C/C=C(/C)C(=O)O[C@H]1CC[C@@]2(C)[C@@H]3CC[C@H]4[C@]5(O)C[C@H](O)[C@@]6(O)[C@@H](CN7C[C@@H](C)CC[C@H]7[C@@]6(C)O)[C@]5(O)C[C@@]42O[C@]13O — recorded inhibition = -3.72%

Entry O=C1C=C2C=C[C@@H]3C[C@@]2(O1)[C@H]1CCCCN31 — recorded inhibition = 7.44%

Values compiled from ChEMBL document CHEMBL2163249.
